- Test system: compound 48/80-induced lethality
- test: Protection of rats from compound 48/80-induced lethality
- Type: in vivo, rats of an inbred Wistar strain
- condition.parameters: Rattus norvegicus, 4 h, read-out: Compound 48/80 lethality test in rats ED50, s.c. or p.o. 1 h before compound 48/80 0.5 mg/kg i.v.; protection of 50% of animals, survival after 4 hours
Recorded measurements of ED50, one per entry
Entry rule: numbers only, all in mg/kg.

Worked set:
OCCN1CCC(Sc2nc3ccccc3n2Cc2ccc(F)cc2)CC1 :: 0.08
CCOC(=O)NCCN1CCC(Sc2nc3ccccc3n2Cc2ccc(F)cc2)CC1 :: 0.04
Cn1cccc1C(=O)NCCN1CCC(Cc2nc3ccccc3n2Cc2ccc(F)cc2)CC1 :: 0.01

Request: Give its ED50 value. Item: Cc1nc2n(c(=O)c1CCN1CCC(Cc3nc4cccnc4n3Cc3ccco3)CC1)CCS2
Response: 0.04

###

- Test system: compound 48/80-induced lethality
- test: Protection of rats from compound 48/80-induced lethality
- Type: in vivo, rats of an inbred Wistar strain
- condition.parameters: Rattus norvegicus, 4 h, read-out: Compound 48/80 lethality test in rats ED50, s.c. or p.o. 1 h before compound 48/80 0.5 mg/kg i.v.; protection of 50% of animals, survival after 4 hours
measurement.label: ED50
Please don't drop the unit; write it after the number.

Request: Give its ED50 value. Item: Fc1ccc(Cn2c(CC3CCNCC3)nc3ccccc32)cc1 [Compound 47]
Response: 0.08 mg/kg

Request: Give its ED50 value. Item: O=c1[nH]c2ccccc2c(=O)n1CCCCN1CCC(Cc2nc3cccnc3n2Cc2ccco2)CC1 [Compound 491]
Response: 0.16 mg/kg

Request: Give its ED50 value. Item: CN1CCC(Cc2nc3ccccc3n2Cc2ccco2)CC1 [Compound 86]
Response: 0.01 mg/kg

Request: Give its ED50 value. Item: c1csc(Cn2c(CC3CCN(CCNc4nccs4)CC3)nc3ccccc32)c1 [Compound 356]
Response: 0.02 mg/kg

Request: Give its ED50 value. Item: O=C(NCCN1CCC(Cc2nc3ccccc3n2Cc2ccc(F)cc2)CC1)c1cccs1 [Compound 443]
Response: 0.02 mg/kg

Request: Give its ED50 value. Item: CCOC(=O)c1csc(NCCN2CCC(Cc3nc4ccccc4n3Cc3ccc(F)cc3)CC2)n1 [Compound 455]
Response: 0.04 mg/kg

Request: Give its ED50 value. Item: Fc1ccc(Cn2c(CC3CCN(CCNc4cccnn4)CC3)nc3ccccc32)cc1 [Compound 500]
Response: 0.01 mg/kg

Request: Give its ED50 value. Item: N#CCN1CCC(Cc2nc3ccccc3n2Cc2ccccc2)CC1 [Compound 297]
Response: 0.08 mg/kg

Request: Give its ED50 value. Item: Cc1nc2ccccn2c(=O)c1CCN1CCC(Cc2nc3ccccc3n2Cc2ccc(F)cc2)CC1 [Compound 214]
Response: 0.08 mg/kg

Request: Give its ED50 value. Item: O=c1c2ccccc2[nH]c(=S)n1CCN1CCC(Cc2nc3ccccc3n2Cc2ccco2)CC1 [Compound 461]
Response: 0.08 mg/kg

Request: Give its ED50 value. Item: Fc1ccc(Cn2c(CC3CCN(Cc4ccccc4)CC3)nc3ccccc32)cc1 [Compound 34]
Response: 0.04 mg/kg

Request: Give its ED50 value. Item: OCCN1CCC(Cc2nc3ccccc3n2Cc2ccccc2)CC1 [Compound 112]
Response: 0.08 mg/kg
